Origin of the recorded values: patent US10144715B2

tested.on: Gal4 DNA binding domain fused to the LBD of LXRα in HEK293 cells (Homo sapiens (Human), UniProt Q13133)
Sequence (Q13133 209-447): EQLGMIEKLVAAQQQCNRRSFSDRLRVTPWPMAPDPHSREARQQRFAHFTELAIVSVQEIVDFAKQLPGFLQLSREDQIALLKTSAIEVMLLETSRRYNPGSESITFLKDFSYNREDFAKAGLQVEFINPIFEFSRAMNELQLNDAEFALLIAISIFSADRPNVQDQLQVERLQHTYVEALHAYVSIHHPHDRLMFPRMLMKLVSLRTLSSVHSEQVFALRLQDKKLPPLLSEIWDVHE
measurement.notes: LXR luciferase transcriptional reporter gene assay, agonist mode, LXRα
Type: cell-based
result.type: Cell LXRα efficacy

Below are worked cases with known answers.
Looking for the measured Cell LXRα efficacy of CC1(C)CCC(CN2CCN(c3ccc(CO)c(S(C)(=O)=O)c3)C[C@H]2c2ccccc2)CC1 (single isomer, unassigned) , can you help?
18123 (60) %

Looking for the measured Cell LXRα efficacy of `CC(C)[C@@H]1CN(c2ccc(C#N)c(S(C)(=O)=O)c2)CCN1c1ccc(C(F)(F)F)cn1` , can you help?
1702 (96) %

Looking for the measured Cell LXRα efficacy of `CNS(=O)(=O)c1cc(N2CCN(c3ncc(C(C)(C)O)c(C(F)(F)F)n3)[C@H](C(C)C)C2)ccc1F` , can you help?
646 (35) %

Further cases:
Looking for the measured Cell LXRα efficacy of CS(=O)(=O)c1cccc(N2CCN(C[C@@H]3CCN(CC(F)(F)F)C3)[C@@H](c3ccccc3)C2)c1 (single isomer, unassigned) , can you help?
2312 (23) %

Looking for the measured Cell LXRα efficacy of `CC(C)[C@H]1CN(c2cccc(S(C)(=O)=O)c2)CCN1CC1CCC(C)(C)CC1` , can you help?
175 (81) %

Looking for the measured Cell LXRα efficacy of CS(=O)(=O)c1cccc(N2CCN(CC3(F)CCN(CC(F)(F)F)CC3)[C@@H](c3ccccc3)C2)c1 (single isomer, unassigned) , can you help?
2169 (43) %

Looking for the measured Cell LXRα efficacy of `CC(C)[C@@H]1CN(c2ccc(F)c(S(C)(=O)=O)c2)CCN1c1ncc(C(F)(F)F)c(Cl)n1` , can you help?
305 (100) %

Looking for the measured Cell LXRα efficacy of `CC(C)[C@@H]1CN(c2cccc(S(C)(=O)=O)c2)CCN1c1ccc(C(F)(F)F)c(C2CC2)n1` , can you help?
1057 (80) %

Looking for the measured Cell LXRα efficacy of CC(C)[C@H]1CC[C@H](CN2CCN(c3ccc(CO)c(S(C)(=O)=O)c3)C[C@H]2c2ccccc2)CC1 (single isomer, unassigned) , can you help?
10997 (14) %

Looking for the measured Cell LXRα efficacy of `CC(C)[C@@H]1CN(c2cc(S(C)(=O)=O)c(CO)cc2F)CCN1c1ncc(C(N)=O)c(C(F)(F)F)n1` , can you help?
1950 (15) %

Looking for the measured Cell LXRα efficacy of `Cc1nc(N2CCN(c3ccc(F)c(S(C)(=O)=O)c3)C[C@H]2C(C)C)ncc1C(F)(F)F` , can you help?
262 (91) %

Looking for the measured Cell LXRα efficacy of `CC(C)[C@H]1CN(c2ccc(CO)c(S(C)(=O)=O)c2)CCN1C[C@@H]1CC[C@H](C(F)(F)F)OC1` , can you help?
27 (80) %

Looking for the measured Cell LXRα efficacy of CS(=O)(=O)c1cccc(N2CCN(C[C@H]3CC[C@@]4(CC3)CC4(F)F)[C@@H](c3ccccc3)C2)c1 (single isomer, unassigned) , can you help?
425 (69) %

Looking for the measured Cell LXRα efficacy of `Cc1nc(N2CCN(c3ccc(F)c(S(C)(=O)=O)c3)C[C@H]2C(C)C)ncc1Br` , can you help?
787 (80) %

Looking for the measured Cell LXRα efficacy of `Cc1nc(N2CCN(c3ccc(F)c(S(C)(=O)=O)c3)C[C@H]2C(C)C)ncc1F` , can you help?
1531 (52) %

Looking for the measured Cell LXRα efficacy of `Cc1nc(N2CCN(c3ccc(F)c(S(C)(=O)=O)c3)C[C@H]2C(C)C)ncc1S(C)(=O)=O` , can you help?
9543 (37) %

Looking for the measured Cell LXRα efficacy of `CS(=O)(=O)c1cccc(N2CCN(C[C@@H]3C[C@@H]4[C@H](C3)C4(F)F)[C@H](c3ccccc3)C2)c1` , can you help?
7547 (30) %
